# System: contact sensitivity response to 2,4-dinitrofluorobenzene (DNFB)
# ASSAY SUMMARY: Contact sensitivity response to 2,4-dinitrofluorobenzene (DNFB) in mice
# Type: in vivo, Balb/c female mice
# COND: Table 3, 20.0 mg/kg oral
# Description: This is an antigen-specific T-cell mediated inflammatory response that represents delayed-type hypersensitivity reactions seen in both humans and other mammals. Balb/c female mice (.perspectiveto.20g, Charles River) were sensitized on the shaved abdomen with 25 μl of 0.5% 2,4-dinitrofluorobenzene ([…], Eastman Kodak Co.) in a vehicle of 4:1 acetone:olive oil on days 0 and 1. […] A constant area of the ears was measured immediately before challenge and 24 hours later with an engineer's micrometer. […]
Entries and their measured Ear Swelling (units ± SEM), increase in ear thickness from day 5 to day 6 follow.

Examples with answers:
- COMPOUND: "O=C(O)c1cc(-c2ccc(-c3ccccc3)cc2)nc2ccc(F)cc12"
  RECORDED VALUE: "42.60 ± 2.68 10^-4 inches"
- COMPOUND: "COc1c(-c2ccc(-c3ccccc3)cc2)nc2ccc(F)cc2c1C(=O)O"
  RECORDED VALUE: "20.85 ± 2.53 10^-4 inches"
- COMPOUND: "Cc1c(-c2ccc([S+]([O-])c3ccccc3)cc2)nc2ccc(F)cc2c1C(=O)O (stereo not shown)"
  RECORDED VALUE: "57.28 ± 2.36 10^-4 inches"

Problem: Identify measured Ear Swelling (units ± SEM), increase in ear thickness from day 5 to day 6 corresponding to `Cc1c(-c2ccc(SC(C)C)cc2)nc2ccc(F)cc2c1C(=O)O`
Result: 58.20 ± 4.63 10^-4 inches

Problem: Identify measured Ear Swelling (units ± SEM), increase in ear thickness from day 5 to day 6 corresponding to `Cc1c(-c2ccc(-c3ccc(O)cc3)cc2)nc2ccc(Cl)cc2c1C(=O)O`
Result: 54.58 ± 3.21 10^-4 inches

Problem: Identify measured Ear Swelling (units ± SEM), increase in ear thickness from day 5 to day 6 corresponding to `Cc1ccc2nc(-c3ccc(-c4ccccc4)cc3)c(C)c(C(=O)O)c2c1`
Result: 35.47 ± 2.31 10^-4 inches

Problem: Identify measured Ear Swelling (units ± SEM), increase in ear thickness from day 5 to day 6 corresponding to Cc1c(-c2ccc(Sc3ccccc3)cc2)nc2ccc(Cl)cc2c1C(=O)O [Example 7]
Result: 62.95 ± 3.40 10^-4 inches
